- test_description: inhibitors of the yeast RAM network, primary screen, dse1pr::URA3 reporter, 5-FOA selection (AID 868);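 note: inhibition rescues growth on 5-FOA so higher OD means more RAM inhibition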
- measurement_conditions: S. cerevisiae dse1pr::URA3 reporter, 5-FOA growth OD615, 2 d; at 50 µM; analog-sensitive cbk1-as2 kinase mutant strain
Hit rate of the full screen: of about 190,000 compounds, about 3,500 (1.8%) were called active.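 Rule for the calls: active = inhibition above a set limit, 3 SD over mean compound inhibition (cut at about 8.4% in these data); inactive = the rest.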 The list comes from a sample in which actives are over-represented; it also holds close analogues and randomly drawn compounds.
Labels: active, inactive

| compound | discrete_label |
| --- | --- |
| CCC(C(=O)Nc1ccc(C(C)C)cc1)c1ccccc1 (stereo not drawn) | inactive |
| CCC(C(=O)OCC(=O)Nc1c(Cl)cc(Cl)cc1Cl)c1ccccc1 (stereo not drawn) | active |
| CC(C)=C1C2CCC1C1C(=O)N(NC(=O)c3ccco3)C(=O)C21 (stereo not drawn) | inactive |
| CC(=O)Nc1ccc(Sc2ccccc2C(=O)N2CCCC2)cn1 | inactive |
| CC(O)C(NS(=O)(=O)c1ccc(Cl)cc1)C(=O)OCc1cc([N+](=O)[O-])cc2c1OCOC2 (stereo not drawn) | active |
| CC(=O)Nc1ccn(Cc2c(F)cccc2Cl)n1 | inactive |
| CC(NC(=S)NC1CCCCC1)C(c1ccccc1)N1CCOCC1 (stereo not drawn) | inactive |
| NC(=O)C[n+]1cccc(C(N)=O)c1 | inactive |
| COc1ccc(S(=O)(=O)NC(C)C(=O)Nc2cccc([N+](=O)[O-])c2)cc1 (stereo not drawn) | inactive |
| C=CCn1c(CNC(=O)c2ccco2)nnc1SCC(=O)c1ccc(OC)cc1 | inactive |
| O=[N+]([O-])c1cc(S(=O)(=O)Nc2cccc(Cl)c2)ccc1N=Nc1c(O)[nH]c2ccccc12 | inactive |
| COc1ccc(-c2nnc(SCc3cccnc3)o2)cc1 | inactive |
| CN1CCN(C(=O)CCc2ncc(C(F)(F)F)cc2Cl)CC1 | inactive |
| COCCCNC(=S)NNC(=O)C(O)(c1ccccc1)c1ccccc1 | inactive |
| O=C(CN1CCOCC1)Nc1c(Cl)cc(Cl)cc1Cl | inactive |
| COc1ccc(-c2nnc(SC(=O)N3c4ccccc4Sc4ccccc43)o2)cc1 | active |
| CN(C)S(=O)(=O)c1ccc(NC(=O)N2CCOCC2)cc1 | inactive |
| COc1ccc(C(=O)CSc2nnc(COc3ccccc3)n2Cc2ccco2)cc1 | active |
| COC(=O)c1ccc(CN2CCC(CO)(Cc3ccc(OC)cc3)CC2)cc1 | inactive |
| Cc1c(CN2CCCCC2)c(O)n(CCO)c(=O)c1C#N | inactive |
| OCC(CO)(CO)NCc1ccc(-c2ccccc2)cc1 | inactive |
| Nc1nc(-c2sc3nc4c(cc3c2N)CCCC4)nc(N2CCOCC2)n1 | inactive |
| O=C(COC(=O)/C=C/c1cn(-c2ccccc2)nc1-c1cccnc1)Nc1ccc(Cl)cc1Cl | inactive |

====

- test_description: inhibitors of the yeast RAM network, primary screen, dse1pr::URA3 reporter, 5-FOA selection (AID 868);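 note: inhibition rescues growth on 5-FOA so higher OD means more RAM inhibition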
- measurement_conditions: S. cerevisiae dse1pr::URA3 reporter, 5-FOA growth OD615, 2 d; at 50 µM; analog-sensitive cbk1-as2 kinase mutant strain
About 3,500 (1.8%) of roughly 190,000 compounds were called active.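 The calls were made as follows: active = inhibition above a set limit, 3 SD over mean compound inhibition (cut at about 8.4% in these data); inactive = the rest.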 This excerpt belongs to a sample that is enriched for actives.
Labels: YES (active), NO (inactive)

| compound | discrete_label |
| --- | --- |
| O=c1c(Cl)c(NCc2ccc(F)cc2Cl)cnn1C12CC3CC(CC(C3)C1)C2 | NO |
| Cc1ccccc1C(=O)Nc1ccc(N2CCCCCC2)cc1 | NO |
| O=C(CSc1nncs1)NC1CCCc2ccccc21 (centres undefined) | NO |
| O=C(NCCCN1CCOCC1)c1ccccc1NS(=O)(=O)c1ccc(Br)cc1 | NO |
| Cc1ccc(N=Cc2c(O)n(-c3nccs3)c(=O)c3ccccc23)c(C)c1 | YES |
| Cc1cc(OC(=O)c2ccccc2Cl)ccc1N1C(=O)CCC1=O | NO |
| CN(C)c1ccnc(Nc2ccc(F)cc2)c1C#N | NO |
| COc1ccc(NC(=O)/C(C#N)=C\c2cc(OC)c(OCc3ccc(C(=O)O)cc3)cc2Br)cc1 | YES |
| CN(CC(=O)N1CCN(c2ccccc2)CC1)S(=O)(=O)c1cccs1 | NO |
| CCCNC(=O)OC[C@H]1O[C@H](CCO/N=C/[C@@H](NS(=O)(=O)c2ccc(C)cc2)[C@H](C)/C=C/CC(=O)OC)C=C[C@@H]1Oc1ccc(OC)cc1 | YES |
| COc1ccc(-c2cc(C(F)(F)F)nc(SCCC(=O)NCc3ccco3)n2)cc1 | YES |
| Cc1ccc(C(=O)N/C(=C/c2cccs2)C(=O)NCC2CCCO2)cc1 (centres undefined) | NO |
| O=C(c1cccs1)n1nc(NCc2ccccc2)nc1NCc1ccccc1 | YES |
| COc1cccc(-c2nc3cc(C)ccc3o2)c1 | NO |
| CN(C)c1ccc(C(=S)N2CCN(C(=S)Nc3ccc(Cl)cc3)CC2)cc1 | NO |
| O=C(COC(=O)CCCNC(=O)c1ccc(Cl)cc1)Nc1cc(Cl)ccc1Cl | YES |
| O=C(CN1C(=O)NC2(CCCCCC2)C1=O)NC1CC1 | NO |
| Cc1ccc2[nH]cc(CCNC(=O)c3ccc([N+](=O)[O-])cc3)c2c1 | NO |
| CCCC(NS(=O)(=O)c1ccc(OC)cc1)C(=O)O (centres undefined) | NO |
| COc1cc(/C=C(\C#N)C(=O)Nc2ccc3ccccc3c2)c([N+](=O)[O-])cc1OC | NO |
| Cc1cc([N+](=O)[O-])ccc1NC(=O)c1ccc(NC(=O)C(C)C)cc1 | NO |
| Cc1ccc(Cl)cc1NC(=O)COC(=O)C1CCCCC1 | NO |
| Cc1ccc(S(=O)(=O)Nc2nc(C)cc(-n3nc(C)cc3C)n2)cc1 | NO |
| OCCC1CN(Cc2ccccc2-c2ccco2)CCN1Cc1ccsc1 (centres undefined) | NO |
| O=C(/C=C/c1ccc(Cl)cc1)Nc1ccc(S(=O)(=O)Nc2ncccn2)cc1 | YES |
| O=C(CCC(=O)c1cccs1)NCc1ccccc1 | NO |
| O=C(NCc1cccs1)C(=O)NCC1OCCCN1S(=O)(=O)c1ccc(F)cc1 (centres undefined) | NO |
| CC(NC(=O)COC(=O)c1ccc(Cl)cc1O)c1ccc(F)cc1 (centres undefined) | NO |
| O=S(=O)(Nc1ncccn1)c1ccc(NS(=O)(=O)c2cccc(Cl)c2Cl)cc1 | NO |
| Cc1ccc(Cl)cc1NC(=O)COC(=O)CC(C)(C)C | NO |
| Cc1sc2c(c1C)c(=O)n(-c1ccccc1)c(=O)n2CC(=O)NCC1CCCO1 (centres undefined) | NO |
| COc1ccc(C2OCC3(CO2)SC(=O)NC3=O)cc1OC (centres undefined) | NO |
| CC(=O)c1cccc(-n2nnnc2SCC(=O)NNC(=O)C2CCCCC2)c1 | NO |
| Cc1ccc2[nH]cc(CCCN3C(=O)c4ccccc4C3=O)c2c1 | YES |
| Cc1ccc(N=Cc2c(O)cc(C)oc2=O)c(C)c1 | NO |
| Cc1ccc(-n2c(O)c(C=Nc3ccc(S(=O)(=O)Nc4ncccn4)cc3)c3ccccc3c2=O)cc1C | NO |
| O=C1OCC2=C1C(c1ccccc1)CC(=O)N2c1cccc(F)c1 (centres undefined) | NO |
| O=C(CSc1cccc[n+]1[O-])c1ccc(-c2ccccc2)cc1 | NO |
| CCCC(=O)n1nc(NCc2ccc(OC)cc2)nc1NCc1ccc(OC)cc1 | NO |
| O=C(Cc1cccc2ccccc12)Nc1ccc2oc(-c3ccccc3)nc2c1 | NO |
| CSc1c(SCc2ccccc2)cnn(Cc2ccccc2)c1=O | NO |
| C=CCOC(=O)C1=C(C)N=C2SCCC(=O)N2C1/C=C/c1ccccc1OC (centres undefined) | NO |
| O=C(CCC(=O)OCc1cccc(C(=O)Oc2ccccc2)c1)Nc1cccc2ccccc12 | YES |
| CCCN(CCC)C(=S)Nc1cc(C(=O)OC)ccc1C(=O)OC | NO |
